Data provenance is ChEMBL document CHEMBL1255462.

assayProtocol: Cytotoxicity against human A549 cells after 72 hrs
Assay type: cell-based
property: CC50 at 72 h

Lab note: measured CC50 at 72 h of N=C(N)c1ccc2oc(/C=C/c3nc4cc(C(=N)N)ccc4[nH]3)cc2c1 was ≥ 50 µM

---

assayProtocol: Cytotoxicity against human Hep2 cells after 72 hrs
Format: cell-based, HEp-2
property: CC50 at 72 h

# CC50 at 72 h of N=C(N)c1ccc2oc(/C=C/c3nc4cc(C(=N)N)ccc4[nH]3)cc2c1 = ≥ 50 µM
